target: 5-hydroxytryptamine receptor 2B (Homo sapiens, UniProt P41595); assay: Displacement of [3H]mesulergine from human recombinant 5HT2B receptor expressed in CHO cells; format: cell-based
Sequence (P41595 whole entry): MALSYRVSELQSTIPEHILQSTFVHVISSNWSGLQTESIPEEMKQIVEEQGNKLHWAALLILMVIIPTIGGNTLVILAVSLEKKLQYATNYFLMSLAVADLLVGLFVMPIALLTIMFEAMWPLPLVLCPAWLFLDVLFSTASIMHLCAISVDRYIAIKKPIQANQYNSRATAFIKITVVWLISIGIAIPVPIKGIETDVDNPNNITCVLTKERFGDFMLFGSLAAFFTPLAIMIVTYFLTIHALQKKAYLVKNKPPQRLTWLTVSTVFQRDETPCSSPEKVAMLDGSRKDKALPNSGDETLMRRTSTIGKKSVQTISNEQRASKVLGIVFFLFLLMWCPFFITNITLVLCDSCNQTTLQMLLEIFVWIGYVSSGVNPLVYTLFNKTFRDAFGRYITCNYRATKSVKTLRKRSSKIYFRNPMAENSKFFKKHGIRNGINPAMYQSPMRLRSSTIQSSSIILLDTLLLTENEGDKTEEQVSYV
Assign labels as follows, please: label 1 for Ki below 200 nM; label 0 for Ki equal to or exceeding 200 nM.

Previously resolved entries follow.
Fc1ccc(-c2nc(C3CCCC3)nc3c2CNCC3)cc1
label 0
Fc1ccc(-c2nc(Cc3ccccc3)nc3c2CCNC3)cc1
label 0
N#Cc1ccc(-c2nc(C3CCCC3)nc3c2CCNCC3)cc1
label 1
Cc1nc2c(c(-c3ccc(Cl)cc3)n1)CCNCC2
label 0
Fc1ccc(-c2nc(C3CCC3)nc3c2CNCC3)cc1
label 0
Fc1ccc(-c2nc(Cc3ccccc3)nc3c2CNCCC3)cc1
label 0
Fc1ccc(-c2nc(Cc3ccccc3)nc3c2CNCC3)cc1
label 0

Turning now to a further record.
Ki under 200 nM? Item: `COc1ccc(-c2nc(C3CCCC3)nc3c2CCNCC3)cc1`
label 1

---

biological target: 5-hydroxytryptamine receptor 2B (Homo sapiens); experiment: Binding affinity at 5HT2B receptor
endpoint: pKi
// field semantics: pKi = negative decimal log of concentration (mol/L)

Item: `CCN(CC)c1nc2c(c(-c3ccc(C)cc3)n1)CNCC2` Test system: 5-hydroxytryptamine receptor 2B (Homo sapiens) Read-out: pKi Value: ?
7.15

---

Molecular target: 5-hydroxytryptamine receptor 2C (Homo sapiens)
Sequence (P28335 whole entry): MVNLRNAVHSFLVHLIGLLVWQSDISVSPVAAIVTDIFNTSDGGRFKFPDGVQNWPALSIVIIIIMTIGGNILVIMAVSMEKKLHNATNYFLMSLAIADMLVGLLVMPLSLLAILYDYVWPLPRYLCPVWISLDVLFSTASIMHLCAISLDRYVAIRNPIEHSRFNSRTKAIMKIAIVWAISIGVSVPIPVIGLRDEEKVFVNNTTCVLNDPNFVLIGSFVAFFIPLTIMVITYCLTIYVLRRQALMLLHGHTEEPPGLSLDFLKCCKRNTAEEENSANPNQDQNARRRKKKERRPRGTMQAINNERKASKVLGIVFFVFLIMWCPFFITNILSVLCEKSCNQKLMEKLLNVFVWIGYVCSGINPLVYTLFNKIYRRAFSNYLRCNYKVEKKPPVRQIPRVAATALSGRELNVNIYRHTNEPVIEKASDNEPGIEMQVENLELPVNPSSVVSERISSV
Experiment: Binding affinity at 5HT2C receptor
endpoint: Ki (nM)
Only the number, expressed in nM, is required.

Please report the recorded Ki for `CCN(CC)c1nc2c(c(-c3ccc(C)cc3)n1)CNCC2` .
300

---

target: UniProtKB P41595; assay: Antagonist activity at human recombinant 5HT2B receptor expressed in CHO cells assessed as increase in calcium levels; assay type: functional, cell-based
Active and inactive are the calls of the source. The rule behind the calls is not given here.
endpoint: Activity

Fc1ccc(Cc2nc3c(c(-c4ccc(F)cc4)n2)CNCC3)cc1
inactive
COc1cccc(C(O)C2CCN(CCc3ccc(F)cc3)CC2)c1OC (single isomer, unassigned)
inactive
Fc1ccc(Cc2nc3c(c(-c4ccc(F)cc4)n2)CCNCC3)cc1
inactive
Cc1nc2n(c(=O)c1CCN1CCC(c3noc4cc(F)ccc34)CC1)CCCC2
inactive
CN(C)CCO/N=C(/C=C/c1ccc(O)cc1)c1ccccc1F
inactive

Item: `Fc1ccc(-c2nc(C3CCCC3)nc3c2CNCC3)cc1` Test system: UniProtKB P41595 Read-out: Activity Value: ?
inactive

Item: `Cc1nc2sccn2c(=O)c1CCN1CCC(=C(c2ccc(F)cc2)c2ccc(F)cc2)CC1` Test system: UniProtKB P41595 Read-out: Activity Value: ?
inactive

---

Target: 5-hydroxytryptamine receptor 2C (Homo sapiens)
Sequence (P28335 whole entry): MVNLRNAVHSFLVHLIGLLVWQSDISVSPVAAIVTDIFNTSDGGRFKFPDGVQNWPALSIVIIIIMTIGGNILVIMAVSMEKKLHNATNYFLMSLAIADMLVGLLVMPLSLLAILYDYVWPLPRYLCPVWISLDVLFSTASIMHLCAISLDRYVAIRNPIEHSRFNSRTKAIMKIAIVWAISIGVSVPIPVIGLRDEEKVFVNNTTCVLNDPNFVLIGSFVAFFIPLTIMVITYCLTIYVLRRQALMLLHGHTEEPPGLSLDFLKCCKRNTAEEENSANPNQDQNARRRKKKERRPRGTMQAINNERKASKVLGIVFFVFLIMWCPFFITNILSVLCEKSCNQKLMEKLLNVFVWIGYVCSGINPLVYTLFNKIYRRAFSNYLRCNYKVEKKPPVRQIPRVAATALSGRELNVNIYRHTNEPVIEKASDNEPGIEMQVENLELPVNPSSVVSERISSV
Assay: Displacement of [3H]mesulergine from human recombinant 5HT2C receptor expressed in CHO cells
Format: cell-based
endpoint: pKi
// field semantics: pKi = negative decimal log of concentration (mol/L)

Some solved cases for reference:
Fc1ccc(-c2nc(C3CCCC3)nc3c2CNCC3)cc1
6.96
Fc1ccc(-c2nc(Cc3ccccc3)nc3c2CCCNC3)cc1
6.82
N#Cc1ccc(-c2nc(C3CCCC3)nc3c2CCNCC3)cc1
6.34
COc1ccc(-c2nc(C3CCCC3)nc3c2CCNCC3)cc1
6.92
Fc1ccc(-c2nc(Cc3ccccc3)nc3c2CNCCC3)cc1
5.30
Fc1ccc(-c2nc(C3CC3)nc3c2CNCC3)cc1
5.30
Cc1ccc(-c2nc(Cc3ccccc3)nc3c2CCNCC3)cc1
7.82
Fc1ccc(-c2nc(Cc3ccccc3)nc3c2CNCC3)cc1
6.40

Now examine the next entry.
Item: `CC(C)(C)c1nc2c(c(-c3ccc(F)cc3)n1)CNCC2` Test system: 5-hydroxytryptamine receptor 2C (Homo sapiens) Read-out: pKi Value: ?
7.00

---

target: 5-hydroxytryptamine receptor 2A (Homo sapiens); experiment: Displacement of [3H]ketanserin from human recombinant 5HT2A receptor expressed in mouse NIH3T3 cells; assay type: cell-based
Sequence (P28223 whole entry): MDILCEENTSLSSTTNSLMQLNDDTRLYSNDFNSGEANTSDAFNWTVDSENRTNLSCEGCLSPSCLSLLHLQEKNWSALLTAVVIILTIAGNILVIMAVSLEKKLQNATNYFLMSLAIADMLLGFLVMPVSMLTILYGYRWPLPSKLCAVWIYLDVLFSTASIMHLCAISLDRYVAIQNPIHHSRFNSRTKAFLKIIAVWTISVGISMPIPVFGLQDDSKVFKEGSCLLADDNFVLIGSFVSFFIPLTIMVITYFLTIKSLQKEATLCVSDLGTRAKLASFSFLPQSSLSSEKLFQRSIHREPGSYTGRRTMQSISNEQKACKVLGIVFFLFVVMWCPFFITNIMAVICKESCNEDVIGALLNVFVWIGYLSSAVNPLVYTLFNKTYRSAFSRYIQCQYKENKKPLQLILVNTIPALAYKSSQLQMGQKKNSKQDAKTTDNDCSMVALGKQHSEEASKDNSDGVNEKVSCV
Measured log10(Ki) of individual entries
All values: log10 Ki [nM].

Some solved cases for reference:
Cc1nc2c(c(-c3ccc(Cl)cc3)n1)CCNCC2
3.08
N#Cc1ccc(-c2nc(C3CCCC3)nc3c2CCNCC3)cc1
1.53
Fc1ccc(-c2nc(-c3ccccc3)nc3c2CNCC3)cc1
1.70
Fc1ccc(Cc2nc3c(c(-c4ccc(F)cc4)n2)CNCC3)cc1
1.11
Fc1ccc(Cc2nc3c(c(-c4ccc(F)cc4)n2)CCNCC3)cc1
-0.15
Fc1ccc(-c2nc(C3CC3)nc3c2CNCC3)cc1
1.60

Please report the recorded log10(Ki) for `Cc1ccc(-c2nc(Cc3ccccc3)nc3c2CCNCC3)cc1` .
-0.40

Please report the recorded log10(Ki) for `FC(F)(F)c1ccc(-c2nc(Cc3ccccc3)nc3c2CCNCC3)cc1` .
-0.10

Please report the recorded log10(Ki) for `COc1ccc(-c2nc(C3CCCC3)nc3c2CCNCC3)cc1` .
1.04

Please report the recorded log10(Ki) for `Fc1ccc(-c2nc(Cc3ccccc3)nc3c2CCNC3)cc1` .
0.95

Please report the recorded log10(Ki) for `Fc1ccc(-c2nc(Cc3ccccc3)nc3c2CNCC3)cc1` .
1.30

Please report the recorded log10(Ki) for `Fc1ccc(-c2nc(C3CCC3)nc3c2CNCC3)cc1` .
1.04

---

Biological target: 5-hydroxytryptamine receptor 2C (Homo sapiens, UniProt P28335)
Sequence (P28335 whole entry): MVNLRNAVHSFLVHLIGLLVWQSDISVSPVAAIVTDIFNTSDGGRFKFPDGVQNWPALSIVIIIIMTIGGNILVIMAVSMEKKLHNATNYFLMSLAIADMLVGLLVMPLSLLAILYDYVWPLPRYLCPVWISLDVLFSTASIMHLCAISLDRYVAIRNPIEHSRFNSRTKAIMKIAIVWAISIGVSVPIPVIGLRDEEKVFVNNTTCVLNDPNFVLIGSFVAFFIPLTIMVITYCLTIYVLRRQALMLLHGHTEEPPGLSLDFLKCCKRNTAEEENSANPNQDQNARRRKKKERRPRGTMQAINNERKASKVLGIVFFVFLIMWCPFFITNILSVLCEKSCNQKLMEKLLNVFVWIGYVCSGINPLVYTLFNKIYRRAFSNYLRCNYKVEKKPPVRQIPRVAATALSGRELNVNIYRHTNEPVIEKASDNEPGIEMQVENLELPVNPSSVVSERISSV
Experiment: Displacement of [3H]mesulergine from human recombinant 5HT2C receptor expressed in CHO cells
Format: cell-based
endpoint: Ki (nM)
Only the number, expressed in nM, is required.

Some solved cases for reference:
Cc1ccc(-c2nc(C3CCCC3)nc3c2CCNCC3)cc1
23
Fc1ccc(-c2nc(C3CCC3)nc3c2CNCC3)cc1
410

Now examine the next entry.
Please report the recorded Ki for `Cc1nc2c(c(-c3ccc(Cl)cc3)n1)CCNCC2` .
5000

---

Measured log10 Ki of individual entries
target: UniProtKB P28223; assay: Displacement of [3H]ketanserin from human recombinant 5HT2A receptor expressed in mouse NIH3T3 cells; format: cell-based
All values: log10 Ki [nM].

Some solved cases for reference:
CC(C)(C)c1nc2c(c(-c3ccc(F)cc3)n1)CNCC2
0.70
CC(C)c1nc2c(c(-c3ccc(F)cc3)n1)CCNCC2
0.60
Fc1ccc(-c2nc(C3CCCC3)nc3c2CNCC3)cc1
0.34
Fc1ccc(-c2nc(C3CCCC3)nc3c2CCNCC3)cc1
1.11
Fc1ccc(-c2nc(Cc3ccccc3)nc3c2CCNCC3)cc1
-0.22

Please report the recorded log10 Ki for `Fc1ccc(-c2nc(Cc3ccccc3)nc3c2CCCNC3)cc1` .
0.94
